# Tested on: Bacillus cereus
# EXPERIMENT SUMMARY: Antimicrobial activity against Bacillus cereus ATCC 11778 at 100 ug/ml after 24 hr by paper disk diffusion method
# Type: functional
# CONDITION NOTES: ATCC 11778, 24 h, read-out: IZ
# zone of inhibition at 100 µg/mL annotations
Write down the numeric answer in mm and omit the unit.

Known results for compounds:
>  <QUERY SMILES>
COc1ccc(/C=N/c2ccc(/N=C3\C(=O)N(Cc4ccccc4)c4ccccc43)cc2)cc1OC

>  <zone of inhibition at 100 µg/mL / mm>
16

$$$$
>  <QUERY SMILES>
O=C1/C(=N\c2ccc(/N=C/c3ccc([N+](=O)[O-])cc3)cc2)c2ccccc2N1Cc1ccccc1

>  <zone of inhibition at 100 µg/mL / mm>
16

$$$$
>  <QUERY SMILES>
O=C(O)c1cn(C2CC2)c2cc(N3CCNCC3)c(F)cc2c1=O

>  <zone of inhibition at 100 µg/mL / mm>
25

$$$$

Could you now look at the following compound, please?
Task item: Please report the recorded zone of inhibition at 100 µg/mL for `COc1cc(/C=N/c2ccc(/N=C3\C(=O)N(Cc4ccccc4)c4ccccc43)cc2)ccc1O` .
Reply: 17

This collection of values is drawn from ChEMBL document CHEMBL3045173.
